molecular target: DRB1*1501 (Homo sapiens, UniProt P01903+P01911); construct: made in house; host or cells: EBV-transformed homozygous human B cell lines, transfected fibroblasts or single-allele 721.221 transfectants; test: biochemical; type: binding; settings: Table 4; read-out: IC50 nM to purified HLA DRB1*1501
Attribute: IC50

# Molecule, Unit String, IC50
rows = [
    ("CC[C@H](C)[C@H](NC(=O)[C@H](CO)NC(=O)[C@H](CC(N)=O)NC(=O)[C@@H](N)CCC(N)=O)C(=O)N[C@H](C(=O)N[C@H](C(=O)N[C@@H](CCC(=O)O)C(=O)N[C@@H](CCCNC(=N)N)C(=O)N[C@@H](CCSC)C(=O)N[C@H](C(=O)N[C@@H](CC(C)C)C(=O)N[C@@H](CO)C(=O)N[C@@H](C)C(=O)N[C@@H](Cc1ccccc1)C(=O)N[C@@H](CC(=O)O)C(=O)O)C(C)C)[C@@H](C)CC)[C@@H](C)O", "nM", 1200),
    ("CC[C@H](C)[C@H](NC(=O)[C@H](CCC(=O)O)NC(=O)CNC(=O)[C@@H](N)C(C)C)C(=O)N[C@@H](CO)C(=O)N1CCC[C@H]1C(=O)N[C@@H](CC(C)C)C(=O)N1CCC[C@H]1C(=O)N[C@@H](CO)C(=O)N[C@@H](CC(C)C)C(=O)N1CCC[C@H]1C(=O)NCC(=O)N[C@@H](Cc1c[nH]cn1)C(=O)N[C@H](C(=O)N[C@@H](CC(=O)O)C(=O)O)[C@@H](C)O", "nM", 38),
]

* * *

Attribute: IC50
target: DRB1*0404 (Homo sapiens, UniProt P01903+P01911, A100R/A169T/F76Y/I96L/K127E/L162R/M171V/N62H/P40V/Q125Y/R42H/S133A/S149N/S66Y/V209L/W38E); assay: biochemical; format: binding; details: IC50 nM to purified HLA DRB1*0404
Measured Endpoint: IC50 (nM)

# Molecule, Unit String, Quantitative Readout
rows = [
    ("CC[C@H](C)[C@H](NC(=O)[C@H](CCCNC(=N)N)NC(=O)[C@H](CCCCN)NC(=O)[C@H](CC(=O)O)NC(=O)[C@H](C)NC(=O)[C@@H](NC(=O)[C@@H](NC(=O)[C@@H]1CCCN1C(=O)[C@H](Cc1ccc(O)cc1)NC(=O)[C@@H](N)CCCCN)[C@@H](C)CC)[C@@H](C)O)C(=O)N[C@@H](CCSC)C(=O)N[C@@H](CCC(=O)O)C(=O)N[C@@H](CCSC)C(=O)N[C@H](C(=O)N1CCC[C@H]1C(=O)O)[C@@H](C)CC", "nM", 2290),
    ("CC[C@H](C)[C@H](NC(=O)[C@H](C)NC(=O)CNC(=O)[C@@H](N)CCC(=O)O)C(=O)N[C@H](C(=O)NCC(=O)N[C@@H](CCC(=O)O)C(=O)N[C@H](C(=O)N[C@@H](CO)C(=O)N1CCC[C@H]1C(=O)N[C@@H](CC(C)C)C(=O)N1CCC[C@H]1C(=O)N[C@@H](CO)C(=O)N[C@@H](CC(C)C)C(=O)N1CCC[C@H]1C(=O)O)[C@@H](C)CC)C(C)C", "nM", 13),
    ("CC[C@H](C)[C@H](NC(=O)CNC(=O)[C@H](CCCNC(=N)N)NC(=O)[C@@H](N)CCC(N)=O)C(=O)N[C@@H](CC(C)C)C(=O)N[C@@H](CCC(=O)O)C(=O)N[C@@H](CC(=O)O)C(=O)N[C@@H](CCC(=O)O)C(=O)N[C@@H](CCC(N)=O)C(=O)N[C@@H](CCSC)C(=O)N[C@@H](Cc1ccc(O)cc1)C(=O)N[C@@H](CCC(N)=O)C(=O)N[C@@H](CCCCN)C(=O)N[C@@H](CS)C(=O)N[C@@H](CS)C(=O)O", "nM", 3270),
    ("CSCC[C@H](NC(=O)[C@H](CO)NC(=O)[C@H](CCCCN)NC(=O)[C@H](C)N)C(=O)N[C@@H](CCC(=O)O)C(=O)N[C@@H](Cc1ccc(O)cc1)C(=O)N[C@@H](CC(=O)O)C(=O)N[C@@H](C)C(=O)N[C@H](C(=O)N[C@@H](C)C(=O)N[C@H](C(=O)N[C@H](C(=O)N[C@@H](Cc1c[nH]cn1)C(=O)N[C@@H](CO)C(=O)N[C@@H](Cc1c[nH]c2ccccc12)C(=O)O)[C@@H](C)O)[C@@H](C)O)C(C)C", "nM", 646),
    ("CC[C@H](C)[C@H](NC(=O)[C@H](CCC(N)=O)NC(=O)[C@H](CC(C)C)NC(=O)[C@H](CCSC)NC(=O)[C@H](CC(C)C)NC(=O)[C@@H](N)CO)C(=O)NCC(=O)N[C@@H](CC(N)=O)C(=O)N[C@@H](CCSC)C(=O)N[C@H](C(=O)N[C@@H](CO)C(=O)N[C@H](C(=O)N[C@@H](Cc1c[nH]c2ccccc12)C(=O)N[C@H](C(=O)N[C@@H](CO)C(=O)N[C@@H](Cc1c[nH]cn1)C(=O)N[C@@H](CO)C(=O)O)C(C)C)[C@@H](C)CC)[C@@H](C)CC", "nM", 3),
    ("CC[C@H](C)[C@H](NC(=O)[C@H](CCSC)NC(=O)[C@H](CO)NC(=O)[C@@H](N)CCC(=O)O)C(=O)N[C@@H](CCC(=O)O)C(=O)N[C@@H](C)C(=O)N[C@@H](CCC(=O)O)C(=O)N[C@@H](CO)C(=O)N[C@@H](CO)C(=O)N[C@H](C(=O)N[C@@H](CCCCN)C(=O)N[C@@H](CCC(=O)O)C(=O)N[C@@H](CCCCN)C(=O)N[C@@H](CC(=O)O)C(=O)N[C@@H](CCSC)C(=O)O)C(C)C", "nM", 121),
    ("CC[C@H](C)[C@H](NC(=O)[C@H](CCC(=O)O)NC(=O)[C@H](CCC(N)=O)NC(=O)[C@H](CCC(=O)O)NC(=O)[C@@H](NC(=O)[C@H](CCC(=O)O)NC(=O)[C@H](CC(C)C)NC(=O)[C@H](CC(C)C)NC(=O)[C@H](CC(C)C)NC(=O)[C@@H](N)CCC(N)=O)C(C)C)C(=O)N[C@@H](CCCNC(=N)N)C(=O)N[C@H](C(=O)N[C@@H](Cc1ccccc1)C(=O)N[C@@H](CO)C(=O)N[C@@H](Cc1ccccc1)C(=O)O)[C@@H](C)O", "nM", 1600),
    ("CC[C@H](C)[C@H](NC(=O)[C@@H](NC(=O)[C@H](CC(C)C)NC(=O)[C@H](CO)NC(=O)[C@H](CCC(N)=O)NC(=O)[C@H](CC(=O)O)NC(=O)[C@@H](NC(=O)[C@H](CC(=O)O)NC(=O)[C@H](CC(=O)O)NC(=O)[C@H](CC(N)=O)NC(=O)[C@H](CCCNC(=N)N)NC(=O)[C@@H](NC(=O)[C@H](CCC(=O)O)NC(=O)CNC(=O)CN)C(C)C)C(C)C)[C@@H](C)CC)C(=O)O", "nM", 458),
    ("CC[C@H](C)[C@H](NC(=O)[C@H](CO)NC(=O)[C@H](CCC(=O)O)NC(=O)CN)C(=O)N[C@H](C(=O)N[C@H](C(=O)N[C@@H](CCC(=O)O)C(=O)N[C@@H](CC(C)C)C(=O)N[C@@H](CC(=O)O)C(=O)N[C@@H](CC(=O)O)C(=O)N1CCC[C@H]1C(=O)N[C@@H](CC(N)=O)C(=O)N[C@@H](C)C(=O)N[C@@H](CC(C)C)C(=O)N[C@@H](CC(C)C)C(=O)O)C(C)C)[C@@H](C)CC", "nM", 80),
    ("CC[C@H](C)[C@H](NC(=O)[C@H](CO)NC(=O)[C@H](CCC(N)=O)NC(=O)[C@H](CCC(=O)O)NC(=O)[C@H](CC(=O)O)NC(=O)[C@H](CCCNC(=N)N)NC(=O)CNC(=O)[C@H](CO)NC(=O)[C@@H](NC(=O)[C@@H](NC(=O)[C@H](CC(C)C)NC(=O)[C@H](CCC(N)=O)NC(=O)[C@@H](NC(=O)[C@@H](N)CC(C)C)[C@@H](C)CC)[C@@H](C)CC)C(C)C)C(=O)N[C@@H](C)C(=O)O", "nM", 90),
]

* * *

molecular target: DRB1*1101 (Homo sapiens, UniProt P01903+P01911, A100R/A169T/A87E/I96F/K41T/L162R/M171V/P40S/Q125H/Q178H/Q39Y/Q99D/R42S/S66Y/T262R/V115G/W38E); assay: biochemical; assay type: binding; conditions: read-out: IC50 nM to purified HLA DRB1*1101
Sequence (P01903 26-254 limits assumed, other chains not shown): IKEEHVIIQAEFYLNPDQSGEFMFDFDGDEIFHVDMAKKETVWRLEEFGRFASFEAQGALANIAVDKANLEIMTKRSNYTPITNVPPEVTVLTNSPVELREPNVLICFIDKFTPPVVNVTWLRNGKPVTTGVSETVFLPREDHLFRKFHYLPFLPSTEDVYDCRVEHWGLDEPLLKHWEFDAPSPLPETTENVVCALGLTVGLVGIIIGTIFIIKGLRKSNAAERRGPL
Measured Endpoint: IC50

# Molecule, Measured Endpoint, Result
records = [
    ("CC[C@H](C)[C@H](NC(=O)[C@H](CC(C)C)NC(=O)[C@H](C)NC(=O)[C@H](CO)NC(=O)[C@H](CCCNC(=N)N)NC(=O)[C@H](C)NC(=O)[C@H](CC(C)C)NC(=O)[C@H](Cc1ccccc1)NC(=O)[C@@H](NC(=O)[C@@H](N)CC(C)C)[C@@H](C)CC)C(=O)N[C@@H](CC(C)C)C(=O)N[C@@H](CCCNC(=N)N)C(=O)NCC(=O)N[C@@H](CO)C(=O)N[C@H](C(=O)O)C(C)C [Flu.NP.259]", "IC50", "86 nM"),
    ("CC[C@H](C)[C@H](NC(=O)[C@H](CCC(=O)O)NC(=O)CNC(=O)[C@@H](N)C(C)C)C(=O)N[C@@H](CO)C(=O)N1CCC[C@H]1C(=O)N[C@@H](CC(C)C)C(=O)N1CCC[C@H]1C(=O)N[C@@H](CO)C(=O)N[C@@H](CC(C)C)C(=O)N1CCC[C@H]1C(=O)NCC(=O)N[C@@H](Cc1c[nH]cn1)C(=O)N[C@H](C(=O)N[C@@H](CC(=O)O)C(=O)O)[C@@H](C)O [Flu.NS1.160]", "IC50", "90 nM"),
    ("CSCC[C@H](NC(=O)[C@H](CO)NC(=O)[C@H](CCCCN)NC(=O)[C@H](C)N)C(=O)N[C@@H](CCC(=O)O)C(=O)N[C@@H](Cc1ccc(O)cc1)C(=O)N[C@@H](CC(=O)O)C(=O)N[C@@H](C)C(=O)N[C@H](C(=O)N[C@@H](C)C(=O)N[C@H](C(=O)N[C@H](C(=O)N[C@@H](Cc1c[nH]cn1)C(=O)N[C@@H](CO)C(=O)N[C@@H](Cc1c[nH]c2ccccc12)C(=O)O)[C@@H](C)O)[C@@H](C)O)C(C)C [Flu.PB1.655]", "IC50", "6620 nM"),
    ("CC[C@H](C)[C@H](NC(=O)[C@@H](NC(=O)[C@H](CCCNC(=N)N)NC(=O)[C@H](CCC(N)=O)NC(=O)[C@@H](NC(=O)[C@@H](NC(=O)[C@H](CCSC)NC(=O)[C@H](CCCCN)NC(=O)[C@H](CCCCN)NC(=O)[C@@H](N)[C@@H](C)O)C(C)C)[C@@H](C)O)[C@@H](C)O)C(=O)NCC(=O)N[C@@H](CCCCN)C(=O)N[C@@H](CCCCN)C(=O)N[C@@H](CCCCN)C(=O)N[C@@H](CCC(N)=O)C(=O)O [Flu.PB1.199]", "IC50", "449 nM"),
]
